# TEST TARGET: hexokinase 1 [Trypanosoma brucei]
# ASSAY EXPLANATION: TbHK1 enzyme inhibition, concentration series – biochemical, IC50, dose response (AID 1632)
# CONDITIONS USED: recombinant TbHK1 enzyme assay, absorbance read-out
pIC50: −log10 of the molar value. Records with an inconclusive call do not appear.
MEASURED ATTRIBUTE: pIC50

[[record]]
smiles_notation = "O=[N+]([O-])c1cc(/C=N\\Nc2nccs2)ccc1O"
measured_attribute = "pIC50"
reported_measurement = 5.57


====

# TEST TARGET: hexokinase 1 [Trypanosoma brucei]
# ASSAY EXPLANATION: TbHK1 enzyme inhibition, concentration series – biochemical, IC50, dose response (AID 1632)
# CONDITIONS USED: recombinant TbHK1 enzyme assay, absorbance read-out; inhibition; at 100 µM; stronger effect = higher value
Records with an inconclusive call do not appear.
Quick list: inhibition per entry.
MEASURED ATTRIBUTE: inhibition (%)

[[record]]
compound = "CCCCc1ccc(/C=C2/C(=O)ON=C2c2ccccc2)s1"
test_target = "hexokinase 1 [Trypanosoma brucei]"
measured_attribute = "inhibition"
unit_name = "%"
reported_measurement = 32.1

[[record]]
compound = "C/C(=C/CCC(C)[C@H]1CC[C@@]2(C)C3=C(CC[C@]12C)[C@@]1(C)CCC(=O)C(C)(C)[C@@H]1CC3)C(=O)O (some centres not stated)"
test_target = "hexokinase 1 [Trypanosoma brucei]"
measured_attribute = "inhibition"
unit_name = "%"
reported_measurement = 55.3

[[record]]
compound = "COc1cc(/C=C(\\C#N)c2nc3c(s2)CCCC3)ccc1O"
test_target = "hexokinase 1 [Trypanosoma brucei]"
measured_attribute = "inhibition"
unit_name = "%"
reported_measurement = 42.4

[[record]]
compound = "CCCCCCCCCCCNC(=O)c1ccoc1C"
test_target = "hexokinase 1 [Trypanosoma brucei]"
measured_attribute = "inhibition"
unit_name = "%"
reported_measurement = 73.4

[[record]]
compound = "O=c1c2ccccc2sn1-c1ccccc1"
test_target = "hexokinase 1 [Trypanosoma brucei]"
measured_attribute = "inhibition"
unit_name = "%"
reported_measurement = 22.3

[[record]]
compound = "O=[N+]([O-])c1cc(/C=N\\Nc2nccs2)ccc1O"
test_target = "hexokinase 1 [Trypanosoma brucei]"
measured_attribute = "inhibition"
unit_name = "%"
reported_measurement = 33.3

[[record]]
compound = "Cc1ccc(CNC(=O)CCS(=O)(=O)c2ccc(Br)cc2)cc1"
test_target = "hexokinase 1 [Trypanosoma brucei]"
measured_attribute = "inhibition"
unit_name = "%"
reported_measurement = 82.3


The origin of these recorded values is PubChem BioAssay AID1632.
